Experiment: Blood-brain barrier permeability by LC/MS-MS after carotid artery injection
Format: in vivo, mouse
Settings: male, Casp6-expressing transgenic mice, mouse, in vivo
measurement_kind: concentration at 5 min

Exercise: Return reported concentration at 5 min; argument: CCC(C)[C@H](NC(=O)[C@H](CCC(=O)O)NC(=O)[C@@H](NC(=O)OCc1ccccc1)C(C)C)C(=O)N[C@H](/C=C/S(C)(=O)=O)CC(=O)O (stereo partly shown)
Solution: 3.4 to 48 µM

----------
Target: recombinant Caspase-9 (Homo sapiens, UniProt P55211)
Sequence (P55211 whole entry): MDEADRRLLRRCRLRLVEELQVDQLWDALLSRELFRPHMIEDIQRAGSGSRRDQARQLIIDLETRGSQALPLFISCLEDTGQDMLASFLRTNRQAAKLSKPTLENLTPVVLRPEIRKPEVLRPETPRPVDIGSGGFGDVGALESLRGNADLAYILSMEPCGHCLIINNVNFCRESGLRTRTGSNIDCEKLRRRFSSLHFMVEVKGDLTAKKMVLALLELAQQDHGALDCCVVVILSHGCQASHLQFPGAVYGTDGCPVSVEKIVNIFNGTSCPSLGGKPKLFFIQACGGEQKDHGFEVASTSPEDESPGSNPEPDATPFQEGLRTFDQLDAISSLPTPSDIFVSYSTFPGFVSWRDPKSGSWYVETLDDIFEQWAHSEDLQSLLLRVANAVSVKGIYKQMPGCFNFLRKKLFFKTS
Experiment: Caspase Inhibitor Drug Screening Kit (BioVision), LEHD-AFC substrate
Details: not active site titrated
Reported values of IC50 for individual entries
API: value field is a number in µM; no unit string.

CCC(C)[C@H](NC(=O)[C@H](CCC(=O)O)NC(=O)[C@@H](NC(=O)OCc1ccccc1)C(C)C)C(=O)N[C@H](/C=C/S(C)(=O)=O)CC(=O)O (some centres unmarked) ... 0.79

Now look at this entry.
Exercise: Notebook entry, recombinant Caspase-9 (Homo sapiens, UniProt P55211) assay: IC50 of CCC(C)[C@H](NC(=O)[C@H](CCC(=O)O)NC(=O)[C@@H](NC(=O)OCc1ccccc1)C(C)C)C(=O)N[C@H](/C=C(\Cl)S(C)(=O)=O)CC(=O)O (some centres unmarked) = ?
Solution: 6.4
